These measurements were taken from patent US9221761B2.

Listed molecules paired with reported pIC50
System: HCT116
METHOD: FMCA (Fluorometric Microculture Cytotoxicity Assay) cytotoxicity
Format: cell-based
RUN_PARAMETERS: Table 2; 72 hours of continuous compound exposure
# pIC50: negative log10 of molar concentration; output just the value

O=C(Cc1ccccn1)C(=O)N1CCC(=Cc2ccc(Cl)c(C(F)(F)F)c2)C(=O)C(=Cc2ccc(Cl)c(C(F)(F)F)c2)C1: 6.10
COc1ccc(C=C2CN(C(C)=O)CCC(=Cc3ccc([N+](=O)[O-])cc3)C2=O)cc1: 5.14

Now look at this one.
[ask] Which pIC50 value is on record for CC(=O)OCCC(=O)N1CCC(=Cc2ccc(Cl)c(C(F)(F)F)c2)C(=O)C(=Cc2ccc(Cl)c(C(F)(F)F)c2)C1 ?
[reply] 5.89

---

Test system: HCT116
METHOD: FMCA (Fluorometric Microculture Cytotoxicity Assay) cytotoxicity
Format: cell-based
RUN_PARAMETERS: Table 2; 72 hours of continuous compound exposure
Listed here are compounds together with their documented pIC50.
FYI, pIC50 means -log10 of a concentration in mol per litre.

Recorded pIC50, per entry:
O=C1/C(=C/c2cc(F)c(F)c(F)c2)CCN(C(=O)Cc2ccccn2)C/C1=C\c1cc(F)c(F)c(F)c1: 6.15
C=CC(=O)N1CCC(=Cc2cccc([N+](=O)[O-])c2)C(=O)C(=Cc2cccc([N+](=O)[O-])c2)C1: 5.60
CC(=O)OCC(=O)N1CC/C(=C\c2ccc(Cl)c(C(F)(F)F)c2)C(=O)/C(=C/c2ccc(Cl)c(C(F)(F)F)c2)C1: 6.15
CC(=O)N1CCC(=Cc2ccc([N+](=O)[O-])cc2)C(=O)C(=Cc2ccc([N+](=O)[O-])cc2)C1: 6.22
CC(=O)N1CCC(=Cc2ccc(C(F)(F)F)cc2)C(=O)C(=Cc2ccc(C(F)(F)F)cc2)C1: 6.15
CC(=O)N1CCC(=Cc2ccc(F)c([N+](=O)[O-])c2)C(=O)C(=Cc2ccc(F)c([N+](=O)[O-])c2)C1: 6.05

[ask] Which value of pIC50 has been reported for O=C1/C(=C/c2ccc(F)c([N+](=O)[O-])c2)CCN(C(=O)Cc2ccccn2)C/C1=C\c1ccc(F)c([N+](=O)[O-])c1 in the records?
[reply] 6.10

[ask] Query (compound): CC(=O)OCC(=O)N1CC/C(=C\c2cc(F)c(F)c(F)c2)C(=O)/C(=C/c2cc(F)c(F)c(F)c2)C1 ; field requested: pIC50
[reply] 6.10

[ask] State the recorded pIC50 for this entry: CC(=O)OCCC(=O)N1CCC(=Cc2ccc(Cl)c(F)c2)C(=O)C(=Cc2ccc(Cl)c(F)c2)C1
[reply] 5.62

[ask] Which value of pIC50 has been reported for CCOc1cc(CC(=O)N2CCC(=Cc3ccc(Cl)cc3)C(=O)C(=Cc3ccc(Cl)cc3)C2)ccc1O in the records?
[reply] 5.92

[ask] Need pIC50, item O=C1C(=Cc2ccc(Cl)cc2)CCN(C(=O)c2cccnc2)CC1=Cc1ccc(Cl)cc1
[reply] 5.68

[ask] What value of measured pIC50 is listed for O=C1C(=Cc2cc(F)c(F)c(F)c2)CCN(C(=O)Cc2cccnc2)CC1=Cc1cc(F)c(F)c(F)c1 ?
[reply] 5.72

[ask] Dear colleague, I am looking for the recorded pIC50 of the following compound: CC(=O)OCC(=O)N1CC/C(=C\c2ccc(Cl)c(F)c2)C(=O)/C(=C/c2ccc(Cl)c(F)c2)C1
[reply] 5.60

[ask] Name the recorded pIC50 for CC(=O)OCCC(=O)N1CCC(=Cc2ccc(F)c([N+](=O)[O-])c2)C(=O)C(=Cc2ccc(F)c([N+](=O)[O-])c2)C1 .
[reply] 5.68

---

The reader will find reported IC50 values listed item by item below.
Test system: HCT116
METHOD: FMCA (Fluorometric Microculture Cytotoxicity Assay) cytotoxicity
Type: cell-based
RUN_PARAMETERS: Table 1; 72 hours of continuous compound exposure

Use the examples below as a reference point.
N#Cc1cc(C=C2CCNCC(=Cc3ccc(F)c(C#N)c3)C2=O)ccc1F: 1000 nM
O=C1C(=Cc2ccc(F)c(C(F)(F)F)c2)CCNCC1=Cc1ccc(F)c(C(F)(F)F)c1: 800 nM
CN1CCC(=Cc2ccc([N+](=O)[O-])cc2)C(=O)C(=Cc2ccc([N+](=O)[O-])cc2)C1: 7400 nM
CN1CCC(=Cc2ccc(F)c(C#N)c2)C(=O)C(=Cc2ccc(F)c(C#N)c2)C1: 1500 nM
CN1CCC(=Cc2cccc([N+](=O)[O-])c2)C(=O)C(=Cc2cccc([N+](=O)[O-])c2)C1 [Compound 1620]: > 32000 nM
O=C1C(=Cc2ccc([N+](=O)[O-])cc2)CCNCC1=Cc1ccc(Cl)cc1: 900 nM

[ask] Param item = CN1CCC(=Cc2ccc(Cl)cc2)C(=O)C(=Cc2ccc(F)cc2)C1 ; retrieve measured IC50.
[reply] 2500 nM

[ask] Name the reported IC50 value associated with the molecule CN1CCC(=Cc2ccc(Cl)c(C(F)(F)F)c2)C(=O)C(=Cc2ccc(Cl)c(C(F)(F)F)c2)C1
[reply] 900 nM

---

System: HCT116
METHOD: FMCA (Fluorometric Microculture Cytotoxicity Assay) cytotoxicity
Assay type: cell-based
RUN_PARAMETERS: Table 1; 72 hours of continuous compound exposure
Experimental: FIGS. 1a to 1o are diagrams illustrating induction of dose-dependent cytotoxicity after 72 hours of continuous compound exposure to the reporter cell line HCT-116 by embodiments of the compound of the invention, as measured FMCA (Fluorometric Microculture Cytotoxicity Assay), as well as absence of such induction by structurally related compounds not comprised by the invention. […] Determination of cell apoptosis and viability. […] Absorbance is measured at 405 nm. […]
REPORTED_ENDPOINT: pIC50
As a rule, pIC50 stands for the negative log10 of the concentration, concentration in M.

CN1CCC(=Cc2ccc(F)c(F)c2)C(=O)C(=Cc2ccc(F)c(F)c2)C1 [Compound 1610]: 5.77
CN1CCC(=Cc2ccc([N+](=O)[O-])cc2)C(=O)C(=Cc2ccc(Cl)cc2)C1 [Compound 1594]: 5.59
O=C1C(=Cc2ccc([N+](=O)[O-])cc2)CCNCC1=Cc1ccc(F)cc1 [Compound 1596]: 5.59
O=C1C(=Cc2ccc(Cl)cc2)CCNCC1=Cc1ccc([N+](=O)[O-])cc1 [Compound 1584]: 5.74
O=C1C(=Cc2ccc(F)c([N+](=O)[O-])c2)CCNCC1=Cc1ccc(F)c([N+](=O)[O-])c1 [Compound 1562]: 6.30

[ask] Data request, read-out pIC50, for O=C1C(=Cc2cc(F)cc(C(F)(F)F)c2)CCNCC1=Cc1cc(F)cc(C(F)(F)F)c1 [Compound 1611]
[reply] 5.96

[ask] Which pIC50 value is on record for CN1CCC(=Cc2ccc(F)cc2)C(=O)C(=Cc2ccc(F)cc2)C1 [Compound 1564] ?
[reply] 6.05

[ask] Tell me the measured pIC50 of CN1CCC(=Cc2ccc([N+](=O)[O-])cc2)C(=O)C(=Cc2ccc(F)cc2)C1 [Compound 1593] , please.
[reply] 5.54

[ask] // query pIC50 value for entry CN1CCC(=Cc2cc(F)cc(C(F)(F)F)c2)C(=O)C(=Cc2cc(F)cc(C(F)(F)F)c2)C1 [Compound 1612]
[reply] 6.15

[ask] pIC50 for O=C1C(=Cc2ccc(C(F)(F)F)c(F)c2)CCNCC1=Cc1ccc(C(F)(F)F)c(F)c1 [Compound 1626] ?
[reply] 6.10

[ask] State the recorded pIC50 for this entry: O=C1C(=Cc2ccc([N+](=O)[O-])cc2)CCNCC1=Cc1ccc([N+](=O)[O-])cc1 [Compound 1537]
[reply] 5.39

[ask] For the molecule shown here, CN1CCC(=Cc2ccc(C(F)(F)F)c(F)c2)C(=O)C(=Cc2ccc(C(F)(F)F)c(F)c2)C1 [Compound 1624] , give the reported pIC50.
[reply] 5.74

[ask] GET /values?readout=pIC50&item= CN1CCC(=Cc2cccc([N+](=O)[O-])c2)C(=O)C(=Cc2cccc([N+](=O)[O-])c2)C1 [Compound 1566]
[reply] 5.64

[ask] Field request: pIC50 | item: O=C1C(=Cc2ccc(F)cc2)CCNCC1=Cc1ccc([N+](=O)[O-])cc1 [Compound 1585]
[reply] 5.82

[ask] // lookup pIC50 for CN1CCC(=Cc2ccc(C(F)(F)F)cc2)C(=O)C(=Cc2ccc(C(F)(F)F)cc2)C1 [Compound 1617]
[reply] 5.80

[ask] What does the record list as pIC50 for CN1CCC(=Cc2ccc(F)cc2)C(=O)C(=Cc2ccc(Cl)cc2)C1 [Compound 1595] ?
[reply] 5.64

---

Tested on: HCT116
METHOD: FMCA (Fluorometric Microculture Cytotoxicity Assay) cytotoxicity
Format: cell-based
RUN_PARAMETERS: Table 2; 72 hours of continuous compound exposure
pIC50: −log10 of the molar value.
Tick yes if pIC50 is 6 or greater. Tick no if pIC50 is less than 6.

COc1ccc(C=C2CN(C(C)=O)CCC(=Cc3ccc(F)cc3)C2=O)cc1: no
CC(=O)N1CCC(=Cc2ccc(F)c(F)c2)C(=O)C(=Cc2ccc(F)c(F)c2)C1: no
O=C1C(=Cc2ccc(Cl)cc2)CCN(C(=O)c2cccs2)CC1=Cc1ccc(Cl)cc1: no
C=CC(=O)N1CCC(=Cc2ccc(F)c([N+](=O)[O-])c2)C(=O)C(=Cc2ccc(F)c([N+](=O)[O-])c2)C1: yes
O=C(O)C(F)(F)F.O=C1/C(=C/c2ccc([N+](=O)[O-])cc2)CCN(C(=O)[C@H]2CCCN2)C/C1=C\c1ccc([N+](=O)[O-])cc1: no

# next molecule below
[ask] State whether the measured pIC50 reaches 6, counting equality as reaching it, for CC(=O)N1CCC(=Cc2cc(F)c(F)c(F)c2)C(=O)C(=Cc2cc(F)c(F)c(F)c2)C1
[reply] yes
